- Target or test system: GlcNAc(a1-4)Gal(b1-4)GlcNAc(b1-3)Gal(b1-4)GlcNAc(b1-3)Gal(b1-4)GlcNAc
- Measurement description: glycan array binding signal (z-score within array); higher = stronger binding
- Condition parameters: glycan notation: IUPAC condensed, linker removed
This excerpt belongs to a sample that is enriched for the strongest signals.
Measurement type: glycan array binding signal (z-score)

>  <Binder>
Epa7 (Candida glabrata), Q6DTM6_CANGB (protein) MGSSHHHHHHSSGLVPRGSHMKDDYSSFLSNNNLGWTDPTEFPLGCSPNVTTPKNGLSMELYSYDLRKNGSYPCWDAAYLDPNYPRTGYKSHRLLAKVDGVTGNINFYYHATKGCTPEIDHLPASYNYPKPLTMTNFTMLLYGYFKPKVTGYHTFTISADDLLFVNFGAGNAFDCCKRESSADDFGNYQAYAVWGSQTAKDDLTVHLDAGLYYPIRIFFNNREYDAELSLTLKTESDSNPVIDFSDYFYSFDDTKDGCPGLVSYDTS

>  <Observed>
-0.237

$$$$
>  <Binder>
SSR2 (Sclerotium rolfsii) (protein) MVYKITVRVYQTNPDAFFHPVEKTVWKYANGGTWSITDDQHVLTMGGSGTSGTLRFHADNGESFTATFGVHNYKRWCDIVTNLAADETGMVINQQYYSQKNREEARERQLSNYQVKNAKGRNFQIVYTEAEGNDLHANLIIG

>  <Observed>
6.99

$$$$
>  <Binder>
AFL6 (Aspergillus fumigatus), Q4WKJ1 (protein) MSFHLTAEDIRIEDGHRLVARLRNADGDLQDASIDLNTCLGNDNGHFQWDGVDFSHSAQDVHFAIEGGGQVPVLRAQLANQDGEFQDADVNLSERIENINGEFVFH

>  <Observed>
3.77

$$$$
